Target: Ba/F3 cells with EGFR Δ19del/T790M/C797S mutation gene stably overexpressed (Homo sapiens, UniProt P00533, T790M/C797S, cells depend on it, form not given)
Sequence (P00533 with tags, fused parts or gaps DEL746-750/T790M/C797S, form open): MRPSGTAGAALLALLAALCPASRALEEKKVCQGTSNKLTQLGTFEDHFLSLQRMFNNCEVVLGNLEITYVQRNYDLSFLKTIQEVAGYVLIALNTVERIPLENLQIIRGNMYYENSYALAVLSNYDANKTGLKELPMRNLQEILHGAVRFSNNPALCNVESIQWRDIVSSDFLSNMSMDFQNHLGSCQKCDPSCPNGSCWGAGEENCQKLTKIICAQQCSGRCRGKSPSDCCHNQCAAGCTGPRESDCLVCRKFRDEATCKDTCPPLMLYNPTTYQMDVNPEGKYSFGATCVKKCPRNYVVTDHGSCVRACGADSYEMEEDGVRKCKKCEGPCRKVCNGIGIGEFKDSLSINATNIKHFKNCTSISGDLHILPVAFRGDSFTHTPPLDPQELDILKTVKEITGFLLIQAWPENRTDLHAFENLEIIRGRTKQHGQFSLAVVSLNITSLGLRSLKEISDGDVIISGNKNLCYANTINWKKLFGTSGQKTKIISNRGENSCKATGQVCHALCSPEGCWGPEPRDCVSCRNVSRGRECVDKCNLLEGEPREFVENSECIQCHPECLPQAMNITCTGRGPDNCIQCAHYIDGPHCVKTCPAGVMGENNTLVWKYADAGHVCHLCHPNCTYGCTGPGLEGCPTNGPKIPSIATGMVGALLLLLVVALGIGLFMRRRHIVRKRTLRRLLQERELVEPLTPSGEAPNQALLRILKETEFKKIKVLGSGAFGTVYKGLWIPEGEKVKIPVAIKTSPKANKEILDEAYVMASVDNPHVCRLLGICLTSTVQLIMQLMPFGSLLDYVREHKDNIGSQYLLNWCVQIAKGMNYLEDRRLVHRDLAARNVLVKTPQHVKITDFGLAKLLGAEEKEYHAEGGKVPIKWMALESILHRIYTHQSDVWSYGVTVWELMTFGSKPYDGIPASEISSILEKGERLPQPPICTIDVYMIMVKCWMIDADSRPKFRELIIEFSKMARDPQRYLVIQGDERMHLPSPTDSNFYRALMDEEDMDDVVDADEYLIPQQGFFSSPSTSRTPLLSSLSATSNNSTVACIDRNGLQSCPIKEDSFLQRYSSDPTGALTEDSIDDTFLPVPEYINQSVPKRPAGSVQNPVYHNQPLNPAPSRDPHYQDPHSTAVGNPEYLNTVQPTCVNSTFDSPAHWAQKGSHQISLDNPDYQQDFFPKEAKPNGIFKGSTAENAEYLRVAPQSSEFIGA
Experiment: Ba/F3-Δ19del/T790M/C797S cell proliferation assay (CellTiter Glo, 72 hours)
Assay type: cell-based
Settings: Table 2, read-out: EGFR Δ19del/T790M/C797S IC50
Binarize GI50 at 50 nM; below is t, at or above is f.

| Cpd Smiles | Label Value |
| --- | --- |
| CCc1cc(Nc2ncc(Br)c(Nc3ccc(-c4ccccc4)cc3P(C)(C)=O)n2)c(OC)cc1N1CCC(N2CCOCC2)CC1 | t |
| CCc1cc(Nc2ncc(Cl)c(Nc3ccc(-c4cnn5c4CCCC5)cc3P(C)(C)=O)n2)c(OC)cc1N1CCC(N2CCN(C)CC2)CC1 | f |
| CCOc1cc(Nc2ncc(Br)c(Nc3ccc(-c4cnn(C)n4)c(F)c3P(C)(C)=O)n2)c(C)cc1N1CCOCC1 | t |
| CCc1cc(Nc2ncc(Cl)c(Nc3ccc(-c4cscn4)cc3P(C)(C)=O)n2)c(OC)cc1N1CCC(N2CCN(C)CC2)CC1 | t |
| COc1cnn(-c2ccc(Nc3nc(Nc4cc(OC)c(N5CCC(N6CCN(C)CC6)CC5)cc4C)ncc3Br)c(P(C)(C)=O)c2)c1 | t |

---

pIC50: −log10 of the molar value.
Record type: pIC50 measurement. Applies to: UniProt:P00533

| Cpd Smiles | pIC50 |
| --- | --- |
| CCn1cc(-c2cc(Nc3ncc(Br)c(Nc4ccc(-c5cccc6cc[nH]c56)cc4P(C)(C)=O)n3)c(OC)cc2N2CCC(N3CCN(C)CC3)CC2)cn1 | 7.41 |
| CCc1cc(Nc2ncc(Br)c(Nc3ccc(-c4ncc(OC)cn4)cc3P(C)(C)=O)n2)c(OC)cc1N1CCC(N2CCN(C)CC2)CC1 | 7.68 |
| CCc1cc(Nc2ncc(Br)c(Nc3ccc(-c4cnn(C)c4)c(OC)c3P(C)(C)=O)n2)c(OC)cc1N1CCC(N2CCN(C)CC2)CC1 | 7.91 |
| COc1cnn(-c2ccc(Nc3nc(Nc4cc(C)c(N5CCOCC5)c(OC)c4)ncc3Br)c(P(C)(C)=O)c2)c1 | 5.95 |
| CCc1cc(Nc2ncc(Cl)c(Nc3ccc(-c4nnc(C)o4)cc3P(C)(C)=O)n2)c(OC)cc1N1CCC(N2CCN(C)CC2)CC1 | 7.50 |
| COc1cc(Nc2ncc(Br)c(Nc3ccc(-c4cnccn4)cc3P(C)(C)=O)n2)c(C)cc1N1CCOCC1 | 7.50 |

---

Biological target: EGFR WT (Homo sapiens)
Sequence (P00533 25-1210): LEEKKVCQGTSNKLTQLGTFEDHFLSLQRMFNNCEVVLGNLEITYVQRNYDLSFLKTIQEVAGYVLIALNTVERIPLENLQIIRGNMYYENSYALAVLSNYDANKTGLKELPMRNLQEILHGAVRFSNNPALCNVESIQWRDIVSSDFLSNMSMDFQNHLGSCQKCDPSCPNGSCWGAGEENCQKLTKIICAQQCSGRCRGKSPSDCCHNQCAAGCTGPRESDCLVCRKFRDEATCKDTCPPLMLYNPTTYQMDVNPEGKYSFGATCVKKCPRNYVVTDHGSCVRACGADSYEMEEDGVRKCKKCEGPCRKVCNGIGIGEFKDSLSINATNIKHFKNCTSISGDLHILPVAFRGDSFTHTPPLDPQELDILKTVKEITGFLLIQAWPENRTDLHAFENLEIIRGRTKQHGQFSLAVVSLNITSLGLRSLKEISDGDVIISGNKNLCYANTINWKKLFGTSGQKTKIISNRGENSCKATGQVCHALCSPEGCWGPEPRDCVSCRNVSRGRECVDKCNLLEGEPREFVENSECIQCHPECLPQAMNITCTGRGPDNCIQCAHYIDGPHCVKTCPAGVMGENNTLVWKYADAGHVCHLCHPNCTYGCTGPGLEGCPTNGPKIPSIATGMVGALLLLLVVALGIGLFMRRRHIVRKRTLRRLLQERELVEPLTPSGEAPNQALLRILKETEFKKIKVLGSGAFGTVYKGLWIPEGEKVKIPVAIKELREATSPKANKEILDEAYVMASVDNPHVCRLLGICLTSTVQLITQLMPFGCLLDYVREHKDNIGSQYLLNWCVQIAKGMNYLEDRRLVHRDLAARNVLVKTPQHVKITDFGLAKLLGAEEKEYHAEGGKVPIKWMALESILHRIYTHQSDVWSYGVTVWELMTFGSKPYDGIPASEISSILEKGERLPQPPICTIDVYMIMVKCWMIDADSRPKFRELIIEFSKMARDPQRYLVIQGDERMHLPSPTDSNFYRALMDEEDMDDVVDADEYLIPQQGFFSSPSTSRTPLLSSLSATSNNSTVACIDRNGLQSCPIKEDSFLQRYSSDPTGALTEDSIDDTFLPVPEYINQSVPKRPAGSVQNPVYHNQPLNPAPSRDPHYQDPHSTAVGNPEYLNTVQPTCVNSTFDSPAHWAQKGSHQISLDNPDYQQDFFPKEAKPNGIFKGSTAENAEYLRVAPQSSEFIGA

| Compound | IC50 / nM |
| --- | --- |
| CCc1cc(Nc2ncc(Br)c(Nc3ccc(-c4cncc(OC)n4)cc3P(C)(C)=O)n2)c(OC)cc1N1CCC(N2CCN(C)CC2)CC1 [Compound 59] | 41 |
| CCc1cc(Nc2ncc(Br)c(Nc3ccc(-c4cc(C)n(C)n4)cc3P(C)(C)=O)n2)c(OC)cc1N1CCC(N2CCN(C)CC2)CC1 [Compound K-066] | 13.9 |
| CCc1cc(Nc2ncc(Br)c(Nc3ccc(-c4ncn(C)n4)cc3P(C)(C)=O)n2)c(OC)cc1N1CCC(N2CCN(C)CC2)CC1 [Compound 31] | 27.6 |
| COc1cnn(-c2ccc(Nc3nc(Nc4cc(OC)c(N5CCN(C)CC5)cc4C)ncc3Br)c(P(C)(C)=O)c2)c1 [Compound K-028] | 26 |

---

This section presents compounds with their documented log10(IC50) values.
Tested on: A431
Assay: A431 cell proliferation assay (CellTiter Glo, 72 hours)
Type: cell-based
Details: Homo sapiens, A-431, 72 h, cell proliferation, A431, 72 hours, Table 2; read-out: A431 IC50
Protocol: Cell line: Ba/F3 cells with EGFR Δ19del/T790M/C797S mutation gene stably overexpressed named Ba/F3-Δ119del/T90M/C797S, and A431 and Ba/F3-EGFR wild-type cell line. RPMI 1640 and 10% FBS and 1% PS; DMEM and 10% FBS and 1% PS. […] c) Read luminous signal value with PerkinElmer reader, […] The data were analyzed by GraphPad Prism 6.0 software to obtain the fitting curve of compound activity. […]
Experimental Endpoint: log10(IC50) (log10 of the value in µM)

| Cpd Smiles | log10(IC50) |
| --- | --- |
| CCc1cc(Nc2ncc(Br)c(Nc3ccc(-c4cnc(OC)nc4)cc3P(C)(C)=O)n2)c(OC)cc1N1CCC(N2CCN(C)CC2)CC1 | 0.71 |
| CCc1cc(Nc2ncc(Br)c(Nc3ccc(-c4cc(C)n(C)n4)cc3P(C)(C)=O)n2)c(OC)cc1N1CCC(N2CCN(C)CC2)CC1 | 0.36 |
| CCc1cc(Nc2ncc(Br)c(Nc3ccc(-c4cnn(C)c4)cc3P(C)(C)=O)n2)c(OC)cc1N1CCC(N2CCN(C)CC2)CC1 | -0.22 |
| COc1cc(N2CCN(C)CC2)c(C)cc1Nc1ncc(Br)c(Nc2ccc(-c3nccs3)cc2P(C)(C)=O)n1 | 0.50 |
| CCCc1cc(Nc2ncc(Br)c(Nc3ccc(-c4cnn(C)c4)cc3P(C)(C)=O)n2)c(OC)cc1N1CCC(N2CCN(C)CC2)CC1 | -0.34 |
| COc1cc(N2CCC(N3CCCCC3)CC2)c(-c2cnn(C)c2)cc1Nc1ncc(Br)c(Nc2ccc(-c3ccccc3)cc2P(C)(C)=O)n1 | -1.00 |

---

Record type: log10 of IC50 measurement. Applies to: IGF1R (Homo sapiens, UniProt P08069)
Experimental Endpoint: log10 of IC50 (log10 of the value in nM)

| Cpd Smiles | Target System | Value Measured |
| --- | --- | --- |
| CCc1cc(Nc2ncc(Cl)c(Nc3ccc(-c4cn[nH]c4)cc3P(C)(C)=O)n2)c(OC)cc1N1CCC(N2CCN(C)CC2)CC1 | IGF1R (Homo sapiens, UniProt P08069) | 2.05 |
| COc1cc(Nc2ncc(Br)c(Nc3ccc(-c4cnn(C)n4)cc3P(C)(C)=O)n2)c(C)cc1N1CCOCC1 | IGF1R (Homo sapiens, UniProt P08069) | 1.75 |
| COc1cnn(-c2ccc(Nc3nc(Nc4cc(OC)c(N5CCOCC5)cc4C4CC4)ncc3Br)c(P(C)(C)=O)c2)c1 | IGF1R (Homo sapiens, UniProt P08069) | 2.62 |
| CCc1cc(Nc2ncc(Br)c(Nc3ccc(-c4cnsc4)cc3P(C)(C)=O)n2)c(OC)cc1N1CCC(N2CCN(C)CC2)CC1 | IGF1R (Homo sapiens, UniProt P08069) | 1.81 |
| CCc1cc(Nc2ncc(Br)c(Nc3ccc(-c4ccc(C#N)cc4)cc3P(C)(C)=O)n2)c(OC)cc1N1CCC(N2CCN(C)CC2)CC1 | IGF1R (Homo sapiens, UniProt P08069) | 2.04 |
| CCOc1cc(Nc2ncc(Br)c(Nc3ccc(-c4cnn(C)n4)c(F)c3P(C)(C)=O)n2)c(C)cc1N1CCOCC1 | IGF1R (Homo sapiens, UniProt P08069) | 1.57 |

---

Target: EGFRΔ19del/T790M/C797S (Homo sapiens, UniProt P00533, T790M/C797S, form not given)
Sequence (P00533 with tags, fused parts or gaps DEL746-750/T790M/C797S, form open): as the sequence (P00533 with tags, fused parts or gaps DEL746-750/T790M/C797S, form open) above
Test: EGFR Δ19del/T790M/C797S kinase test (mobility variation analysis, Caliper EZ Reader)
Conditions: kinase enzymatic activity, Table 1
This section presents molecules with their documented IC50 values.

| Cpd Smiles | IC50 |
| --- | --- |
| CCc1cc(Nc2ncc(Br)c(Nc3ccc(-c4cnn(C)n4)cc3P(C)(C)=O)n2)c(OC)cc1N1CCC(N2CCOCC2)CC1 | 0.3 nM |
| CCc1cc(Nc2ncc(Br)c(Nc3ccc(-c4cnn(CC)n4)cc3P(C)(C)=O)n2)c(OC)cc1N1CCC(N2CCN(C)CC2)CC1 | 0.2 nM |
| CCc1cc(Nc2ncc(Br)c(Nc3ccc(-c4cnsc4)cc3P(C)(C)=O)n2)c(OC)cc1N1CCC(N2CCN(C)CC2)CC1 | 0.3 nM |

---

Target: IGF1R (Homo sapiens, UniProt P08069)
Sequence (P08069 31-1367, species assumed): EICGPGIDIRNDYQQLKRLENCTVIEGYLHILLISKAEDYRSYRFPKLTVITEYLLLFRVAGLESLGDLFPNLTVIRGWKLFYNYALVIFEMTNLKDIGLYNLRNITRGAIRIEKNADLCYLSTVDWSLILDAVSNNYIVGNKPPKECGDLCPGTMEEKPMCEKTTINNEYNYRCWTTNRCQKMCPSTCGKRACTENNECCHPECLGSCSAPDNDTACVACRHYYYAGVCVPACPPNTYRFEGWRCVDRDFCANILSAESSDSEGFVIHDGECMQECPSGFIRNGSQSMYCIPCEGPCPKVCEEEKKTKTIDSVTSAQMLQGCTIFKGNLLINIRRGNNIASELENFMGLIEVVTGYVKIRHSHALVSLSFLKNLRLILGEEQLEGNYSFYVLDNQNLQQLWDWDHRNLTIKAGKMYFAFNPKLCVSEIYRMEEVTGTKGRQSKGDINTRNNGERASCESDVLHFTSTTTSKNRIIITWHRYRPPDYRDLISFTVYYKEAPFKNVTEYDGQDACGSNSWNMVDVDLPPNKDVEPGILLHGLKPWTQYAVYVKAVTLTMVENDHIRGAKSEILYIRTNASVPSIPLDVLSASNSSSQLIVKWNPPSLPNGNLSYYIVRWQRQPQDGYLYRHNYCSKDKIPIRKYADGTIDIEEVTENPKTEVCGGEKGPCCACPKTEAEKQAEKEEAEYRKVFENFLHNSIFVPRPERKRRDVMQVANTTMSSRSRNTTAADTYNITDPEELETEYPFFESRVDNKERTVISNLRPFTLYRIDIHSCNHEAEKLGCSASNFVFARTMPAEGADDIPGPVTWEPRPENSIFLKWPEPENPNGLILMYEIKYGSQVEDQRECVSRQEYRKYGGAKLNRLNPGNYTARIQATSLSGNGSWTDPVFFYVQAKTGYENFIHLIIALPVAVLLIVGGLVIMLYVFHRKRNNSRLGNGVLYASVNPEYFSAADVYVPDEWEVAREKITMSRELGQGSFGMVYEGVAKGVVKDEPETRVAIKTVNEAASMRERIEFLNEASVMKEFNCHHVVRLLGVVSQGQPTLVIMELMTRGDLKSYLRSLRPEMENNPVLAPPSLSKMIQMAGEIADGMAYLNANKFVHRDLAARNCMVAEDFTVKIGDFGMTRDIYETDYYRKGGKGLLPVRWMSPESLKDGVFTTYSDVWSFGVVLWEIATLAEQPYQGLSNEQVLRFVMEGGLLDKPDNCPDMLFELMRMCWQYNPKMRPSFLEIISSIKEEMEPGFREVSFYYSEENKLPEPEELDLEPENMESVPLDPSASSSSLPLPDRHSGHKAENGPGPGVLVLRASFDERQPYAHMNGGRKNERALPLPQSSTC
Assay: IGF1R kinase test (mobility variation analysis, Caliper EZ Reader)
Conditions: kinase enzymatic activity, Table 1; read-out: EGFR IGF1R IC50
Experimental Endpoint: IC50 (nM)

| Cpd Smiles | Experimental Endpoint | Value Measured |
| --- | --- | --- |
| CCc1cc(Nc2ncc(Br)c(Nc3ccc(-c4cc5cc(C#N)ccc5[nH]4)cc3P(C)(C)=O)n2)c(OC)cc1N1CCC(N2CCN(C)CC2)CC1 | IC50 | 748 |
| CCc1cc(Nc2ncc(Br)c(Nc3ccc(-c4ncco4)cc3P(C)(C)=O)n2)c(OC)cc1N1CCC(N2CCN(C)CC2)CC1 | IC50 | 72 |
| COc1cnn(-c2ccc(Nc3nc(Nc4cc(C)c(N5CCC(N6CCCCC6)CC5)cc4OC)ncc3Br)c(P(C)(C)=O)c2)c1 | IC50 | 96.1 |
| CCc1cc(Nc2ncc(Cl)c(Nc3ccc(-c4ncc(OC)cn4)cc3P(C)(C)=O)n2)c(OC)cc1N1CCC(N2CCN(C)CC2)CC1 | IC50 | 120 |
| CCOc1noc(C)c1-c1ccc(Nc2nc(Nc3cc(CC)c(N4CCC(N5CCN(C)CC5)CC4)cc3OC)ncc2Cl)c(P(C)(C)=O)c1 | IC50 | 274 |
| CCOc1cnc(-c2ccc(Nc3nc(Nc4cc(CC)c(N5CCC(N6CCN(C)CC6)CC5)cc4OC)ncc3Br)c(P(C)(C)=O)c2)nc1 | IC50 | 91 |
| CCc1cc(Nc2ncc(Br)c(Nc3ccc(-n4cc(COC)cn4)cc3P(C)(C)=O)n2)c(OC)cc1N1CCC(N2CCN(C)CC2)CC1 | IC50 | 202 |
| CCc1cc(Nc2ncc(Br)c(Nc3ccc(-c4ccc(N(C)C)nn4)cc3P(C)(C)=O)n2)c(OC)cc1N1CCC(N2CCN(C)CC2)CC1 | IC50 | 263 |
| CCc1cc(Nc2ncc(Br)c(Nc3ccc(-c4nn(C)c5ncccc45)cc3P(C)(C)=O)n2)c(OC)cc1N1CCC(N(C)C)CC1 | IC50 | 997 |
| CCc1cc(Nc2ncc(Cl)c(Nc3ccc(-c4ncc(F)cn4)cc3P(C)(C)=O)n2)c(OC)cc1N1CCC(N2CCN(C)CC2)CC1 | IC50 | 126 |
| COc1cc(Nc2ncc(Br)c(Nc3ccc(-c4cnn(C)n4)c(F)c3P(C)(C)=O)n2)c(C)cc1N1CCC(N2CCN(C)CC2)CC1 | IC50 | 35 |
| CCc1cc(Nc2ncc(Br)c(Nc3ccc(-c4ccc(C5CC5)nn4)cc3P(C)(C)=O)n2)c(OC)cc1N1CCC(N2CCN(C)CC2)CC1 | IC50 | 219 |
| CCc1cc(Nc2ncc(Br)c(Nc3ccc(-c4cscn4)cc3P(C)(C)=O)n2)c(OC)cc1N1CCC(N2CCN(C)CC2)CC1 | IC50 | 61 |
